Biological target: His-tagged p53-Y220C DNA binding domain (Homo sapiens, UniProt P04637, Y220C)
Test: Biochemical p53-Y220C and DNA binding assay (HTRF)
Details: inflection point of 10 points dose titration, 4 parameter curve fit; p53-Y220C DBD 100 nM, biotinylated dsDNA 200 nM, 27 to 29° C.; read-out: HTRF IP
pEC50: −log10 of the molar value.
RECORDED METRIC: pEC50

These recorded examples may help you get a feel for the data.
COMPOUND | pEC50
CC(O)(CO/N=C\c1sc2c(N[C@@H]3CNC[C@@H]3F)cccc2c1CC(F)(F)F)c1ccccc1 (stereo partly shown) | 6.00 to 7.00
OC1CNCCC1O/N=C/c1sc2c(N[C@@H]3CNC[C@@H]3F)cccc2c1CC(F)(F)F (stereo partly shown) | < 6.00
CN1CC[C@@H](Nc2cccc3c2cc(/C=N/OCc2nc4ccccc4[nH]2)n3CC(F)(F)F)[C@@H](F)C1 | 6.00 to 7.00
CN1CC[C@@H](Nc2cccc3c(CC(F)(F)F)c(/C=C/CNS(C)(=O)=O)sc23)[C@@H](F)C1 | 6.00 to 7.00
F[C@H]1CNCC[C@H]1Nc1cccc2c(CC(F)(F)F)c(/C=N/OCC3CC3)sc12 | 6.00 to 7.00

Ask: # input compound: CO/N=C/c1sc2c(N[C@@H]3CCN(C)C[C@@H]3F)cccc2c1CC(F)(F)F ; wanted: its pEC50
Reply: < 6.00

Ask: # input compound: CC(O)CO/N=C/c1sc2c(N[C@@H]3CCNC[C@@H]3F)cccc2c1CC(F)(F)F (stereo partly shown) ; wanted: its pEC50
Reply: 6.00 to 7.00

###

Target: His-tagged p53-Y220C DNA binding domain (Homo sapiens, UniProt P04637, Y220C)
Assay: Biochemical p53-Y220C and DNA binding assay (HTRF)
Settings: inflection point of 10 points dose titration, 4 parameter curve fit; p53-Y220C DBD 100 nM, biotinylated dsDNA 200 nM, 27 to 29° C.; read-out: HTRF IP
pEC50: −log10 of the molar value.
Quick reference: pEC50 of the listed items.

COMPOUND | pEC50
CN1CC[C@@H](Nc2cccc3c(CC(F)(F)F)c(/C=C/C(O)c4ccccn4)sc23)[C@@H](F)C1 (stereo partly shown) [Example 5-2] | < 6.00
CC(C)(C)O/N=C/c1sc2c(N[C@@H]3CNC[C@@H]3F)cccc2c1CC(F)(F)F [Example 2-16] | < 6.00
F[C@H]1CNC[C@H]1Nc1cccc2c(CC(F)(F)F)c(/C=N/OCc3cccnc3)sc12 [Example 3-2] | > 7.00

Would you kindly look at the next entry?
Ask: Could you share what pEC50 was measured for OC(CO/N=C/c1sc2c(N[C@@H]3CNC[C@@H]3F)cccc2c1CC(F)(F)F)Cn1cccn1 (stereo partly shown) [Example 1-27] , tested on His-tagged p53-Y220C DNA binding domain (Homo sapiens, UniProt P04637, Y220C)?
Reply: 6.00 to 7.00

###

Target: His-tagged p53-Y220C DNA binding domain (Homo sapiens, UniProt P04637, Y220C)
Assay: Biochemical p53-Y220C and DNA binding assay (HTRF)
Conditions: inflection point of 10 points dose titration, 4 parameter curve fit; p53-Y220C DBD 100 nM, biotinylated dsDNA 200 nM, 27 to 29° C.; read-out: HTRF IP
RECORDED METRIC: EC50

These recorded examples may help you get a feel for the data.
COMPOUND | EC50
COc1cccc(CO/N=C\c2sc3c(N[C@@H]4CCN(C)C[C@@H]4F)cccc3c2CC(F)(F)F)n1 [Example 2-28] | 100 to 1000 nM
OC1(CO/N=C/c2sc3c(N[C@@H]4CNC[C@@H]4F)cccc3c2CC(F)(F)F)CCOC1 (some centres unmarked) [Example 1-40] | 100 to 1000 nM
CN1CC[C@@H](Nc2cccc3c(CC(F)(F)F)c(/C=C/C(O)c4cnn(CC5CC5)c4)sc23)[C@@H](F)C1 (some centres unmarked) [Example 5-7] | 100 to 1000 nM
OC1(CO/N=C/c2sc3c(N[C@@H]4CNC[C@@H]4F)cccc3c2CC(F)(F)F)CCCCC1 [Example 1-29] | > 1000 nM

Would you kindly look at the next entry?
Ask: Could you share what EC50 was measured for Cc1cc(CO/N=C/c2sc3c(N[C@@H]4CNC[C@@H]4F)cccc3c2CC(F)(F)F)no1 [Example 3-7] , tested on His-tagged p53-Y220C DNA binding domain (Homo sapiens, UniProt P04637, Y220C)?
Reply: 100 to 1000 nM
